These measurements were taken from the supplement of paper PMC11451515.

Listed next: entries and their corresponding cell viability.
Test system: NOMO1
Test: cell viability relative to DMSO control; higher = less cytotoxic
Conditions: HPLM + 10% dialyzed FBS; 48 h; 0.00702 µM
MEASUREMENT TYPE: cell viability (%)

> print(dat)
                                   molecule  measured.result
1     CNCC(O)c1ccc(O)cc1 (stereo not drawn)              116
2  Cn1cnc2c(F)c(Nc3ccc(Br)cc3F)c(C(=O)NOCCO)cc21             95.9
3  COc1ccc(-c2ccc3ncc4c(c3c2)n(-c2ccc(N3CCNCC3)c(C(F)(F)F)c2)c(=O)n4C)cn1             57.1
4  C[C@H](NC(=O)c1sccc1OCc1ccc(Cl)cc1)c1ccccc1               80
5  C[C@]12CC[C@H]3[C@@H](CC[C@H]4NC(=O)\C=C/[C@]34C)[C@@H]1CC[C@@H]2C(=O)NC5=CC(=CC=C5C(F)(F)F)C(F)(F)F              122
6  Cc1c(C)n(Cc2ccc(-c3ccccc3C(=O)O)cc2)c2ccc(C(=O)N[C@@H](C)c3ccc([N+](=O)[O-])cc3)cc12              106
7  N#CCNC(=O)c1ccc(-c2ccnc(Nc3ccc(N4CCOCC4)cc3)n2)cc1              116
8  C[C@]12CC[C@@H]3c4ccc(O)cc4CC[C@H]3[C@@H]1[C@@H](O)[C@@H](O)[C@@H]2O              124

====

System: NOMO1
Experiment: cell viability relative to DMSO control; higher = less cytotoxic
Details: RPMI 5 mM glucose + 10% FBS; 48 h; 46.1 µM
Entries and their cell viability values follow.
MEASUREMENT TYPE: cell viability (%)

> print(dat)
                           structure.string  endpoint.unit  measured.result
1  OC[C@H]1O[C@H]([C@H](O)[C@@H]1O)N2\C=C/C(=O)NC2=O              %             80.8
2  C[C@]12CC[C@H]3[C@@H](CC[C@H]4NC(=O)\C=C/[C@]34C)[C@@H]1CC[C@@H]2C(=O)NC5=CC(=CC=C5C(F)(F)F)C(F)(F)F              %             98.8
3   OC[C@@H](O)[C@@H](O)[C@H](O)[C@@H](O)CO              %              114
4  C[C@H]1C[C@@H]2[C@H](CC[C@@]3(C)[C@H]2CC[C@]3(OC(C)=O)C(C)=O)[C@@]\4(C)CCC(=O)\C=C14              %              103
5  CC[C@]12CC[C@H]3[C@@H](CCC/4=C/C(=O)CC[C@H]34)[C@@H]1\C=C/[C@@]2(O)C#C              %              139
6  O=C(O)Cn1nnc(-c2cc(N3CCC(Oc4cc(F)ccc4Br)CC3)no2)n1              %             16.6
7  COC(=O)Nc1cc(Nc2cc(NC3CC3)c3ncc(C#N)n3n2)c(Cl)c(N2CCN(C)CC2)c1              %             4.34
